Target: human mGluR2 receptor (Homo sapiens)
Construct: expressed in transfected cells; host or cells: CHO cells (membranes)
Sequence (Q14416 19-872): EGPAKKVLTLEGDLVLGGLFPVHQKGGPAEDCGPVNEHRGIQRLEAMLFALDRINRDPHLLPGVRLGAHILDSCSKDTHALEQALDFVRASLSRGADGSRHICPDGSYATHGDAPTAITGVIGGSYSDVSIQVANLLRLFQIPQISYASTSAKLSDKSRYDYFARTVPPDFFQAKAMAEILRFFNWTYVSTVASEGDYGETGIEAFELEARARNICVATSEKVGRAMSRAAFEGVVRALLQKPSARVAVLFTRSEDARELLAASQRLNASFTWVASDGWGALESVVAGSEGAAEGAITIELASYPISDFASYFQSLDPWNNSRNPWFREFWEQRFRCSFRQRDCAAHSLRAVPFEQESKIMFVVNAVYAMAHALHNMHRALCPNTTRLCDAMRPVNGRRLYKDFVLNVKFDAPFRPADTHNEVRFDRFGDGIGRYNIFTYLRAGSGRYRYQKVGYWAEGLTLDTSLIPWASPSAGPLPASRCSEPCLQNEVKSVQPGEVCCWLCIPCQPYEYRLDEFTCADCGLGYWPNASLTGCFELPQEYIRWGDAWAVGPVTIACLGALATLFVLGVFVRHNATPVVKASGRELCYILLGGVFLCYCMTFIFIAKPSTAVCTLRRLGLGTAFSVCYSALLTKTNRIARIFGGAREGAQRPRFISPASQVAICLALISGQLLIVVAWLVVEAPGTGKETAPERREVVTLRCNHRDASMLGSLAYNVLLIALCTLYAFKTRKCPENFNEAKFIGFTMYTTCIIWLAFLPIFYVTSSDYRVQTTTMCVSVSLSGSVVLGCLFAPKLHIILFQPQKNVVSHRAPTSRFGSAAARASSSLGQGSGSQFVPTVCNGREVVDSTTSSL
Test: [35S]GTPγS binding assay, mGluR2 positive allosteric modulation (PAM)
Type: biochemical
Conditions: membranes from CHO cells transfected with human mGluR2; in presence of glutamate at EC20; -log EC50 with EC50 in M; read-out: GTPγS - hmGluR2 PAM pEC50 (converted)
# EC50 per entry
Respond numerically; units are nM and should not be typed.

Use these answered entries as a reference point.
compound: Fc1ccc(C2CN(Cc3ccn4c(CC5CC5)nnc4c3C(F)(F)F)CCO2)c(F)c1 (single isomer, unassigned) [Compound 18]
EC50 / nM: 51.3

compound: Fc1ccccc1C1CN(Cc2ccn3c(CC4CC4)nnc3c2C(F)(F)F)CCN1 (single isomer, unassigned) [Compound 6a]
EC50 / nM: 447

compound: FC(F)(F)c1c(CN2CCO[C@@H](c3ccccc3)C2)ccn2c(CC3CC3)nnc12 [Compound 4]
EC50 / nM: 324

Then there is this compound:
Which EC50 is reported for this compound? CC1(c2ccccc2)CN(Cc2ccn3c(CC4CC4)nnc3c2C(F)(F)F)CCO1 (single isomer, unassigned) [Compound 8a] 676

The reported numbers originate from patent US8993591B2.
